# TARGET OR TEST SYSTEM: T1, Kap104p (yeast (S. cerevisiae), UniProt P38217 1-918)
# T1 chain: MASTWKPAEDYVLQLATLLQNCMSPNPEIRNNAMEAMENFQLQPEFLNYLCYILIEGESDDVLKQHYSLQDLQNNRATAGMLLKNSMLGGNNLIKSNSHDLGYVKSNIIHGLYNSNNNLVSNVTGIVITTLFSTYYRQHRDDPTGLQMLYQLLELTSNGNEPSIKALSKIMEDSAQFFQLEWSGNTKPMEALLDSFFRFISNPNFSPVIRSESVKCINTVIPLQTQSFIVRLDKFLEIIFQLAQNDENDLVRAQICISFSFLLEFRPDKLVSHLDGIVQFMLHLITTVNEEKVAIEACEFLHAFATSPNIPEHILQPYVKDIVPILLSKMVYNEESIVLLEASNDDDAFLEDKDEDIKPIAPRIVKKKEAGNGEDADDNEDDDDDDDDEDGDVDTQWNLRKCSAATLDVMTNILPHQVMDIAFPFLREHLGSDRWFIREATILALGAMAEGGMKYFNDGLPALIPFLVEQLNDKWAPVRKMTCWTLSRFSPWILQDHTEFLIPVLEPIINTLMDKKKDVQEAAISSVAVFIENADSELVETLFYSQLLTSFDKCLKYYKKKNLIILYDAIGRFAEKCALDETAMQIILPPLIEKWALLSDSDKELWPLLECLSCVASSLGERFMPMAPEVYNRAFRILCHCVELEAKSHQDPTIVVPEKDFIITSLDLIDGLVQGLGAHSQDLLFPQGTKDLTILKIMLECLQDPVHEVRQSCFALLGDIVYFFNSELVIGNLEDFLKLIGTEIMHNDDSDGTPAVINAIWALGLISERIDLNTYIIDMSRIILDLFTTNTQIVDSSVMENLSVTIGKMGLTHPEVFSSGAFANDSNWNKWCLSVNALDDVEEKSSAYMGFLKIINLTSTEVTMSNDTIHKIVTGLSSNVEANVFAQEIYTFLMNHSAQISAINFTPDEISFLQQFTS
# ASSAY NAME: ITC
PROPERTY NAME: pKd
Please keep in mind that pKd is minus log10 of the molar concentration; only the number is needed.

**Q:** For the binder shown here, MBP–Nab2p NLS 210GGG212/AAA (protein) DNSQRFTQRAAAAVGKNRRGGRGGNRGGRNNNSTRFNPLAKALGMAGESNM , give the reported pKd.
**A:** 7.72
